Recorded N, degree of aggregation (molecules per particle) by entry
Test: Multi-angle light scattering, molecular weight of peptide aggregates and degree of aggregation
Type: physicochemical
Settings: 0.1 mg/ml peptide
Where no end group is shown, it is not given here.
Number plus unit, in that order.

Reference set (2 entries):
SEQ ID NO: 1-PEG11: TM peptide of SEQ ID NO: 1 with hydrophilic oligomer PEG11 added (LLFVITLPFWAVDAVANWYFGNDD; not fully specified; also: PEG11 added) :: 316 molecules per particle
SEQ ID NO: 1-GGGGG: TM peptide of SEQ ID NO: 1 with polyglycine tail GGGGG (LLFVITLPFWAVDAVANWYFGNDD; C-terminal GGGGG tail) :: 664 molecules per particle

Next:
Query :: What value of measured N, degree of aggregation (molecules per particle) is listed for SEQ ID NO: 1-PEG38: TM peptide of SEQ ID NO: 1 with PEG38, obtained by sequential coupling of PEG11 and PEG27 (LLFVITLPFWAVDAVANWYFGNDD; also: PEG38 added (PEG11 + PEG27)) ?
Result :: 93 molecules per particle

The reported numbers originate from patent US9326950B2.
